Entry source: patent US9284322B2

- experimentalTarget: homomeric nAChRs containing the alpha7 subunit (α7) (Rattus norvegicus (Rat))
- Sequence (Q05941 23-502 limits assumed): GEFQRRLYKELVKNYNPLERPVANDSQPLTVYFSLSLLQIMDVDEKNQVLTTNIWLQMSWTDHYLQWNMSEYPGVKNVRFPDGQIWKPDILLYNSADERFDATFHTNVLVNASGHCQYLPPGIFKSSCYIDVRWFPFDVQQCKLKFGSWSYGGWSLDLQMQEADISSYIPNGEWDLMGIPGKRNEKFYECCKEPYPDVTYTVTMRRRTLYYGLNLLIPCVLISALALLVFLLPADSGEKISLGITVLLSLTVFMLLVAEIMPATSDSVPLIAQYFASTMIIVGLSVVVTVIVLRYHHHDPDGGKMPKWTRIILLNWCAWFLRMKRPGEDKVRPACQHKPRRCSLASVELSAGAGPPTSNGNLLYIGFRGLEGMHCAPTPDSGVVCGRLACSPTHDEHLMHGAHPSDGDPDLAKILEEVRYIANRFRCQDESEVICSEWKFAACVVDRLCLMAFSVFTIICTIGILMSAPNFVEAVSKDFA
- assayComment: biochemical
- Assay type: binding
- conditionParameters: rat cerebral cortex homogenate, 40-50 pM [125I]MLA; read-out: α7 [125I]iodoMLA (Ki)
recordedMetric: Ki (µM)
State the answer as a number, implicitly in µM.

INSERT INTO results (compound, experimentaltarget, recordedmetric, unittext, observedmeasurement) VALUES
  ('Fc1ccc(-c2cc(C3CC4CCC3N4)cnc2F)cn1 (stereo not shown)', 'homomeric nAChRs containing the alpha7 subunit (α7) (Rattus norvegicus (Rat))', 'Ki', 'µM', 4.85);

Query string: Find Ki (homomeric nAChRs containing the alpha7 subunit (α7) (Rattus norvegicus (Rat))) for the entry Fc1ncc(C2CC3CCC2N3)cc1-c1cccnc1 (stereo not shown)
Result string: 5.5

Query string: What do you have for Fc1ncc(C2CC3CCC2N3)cc1-c1ccncc1 (stereo not shown) ?
Result string: 9.7

Query string: Request: COc1ccc(-c2cc(C3CC4CCC3N4)cnc2F)cn1 (stereo not shown)
Result string: 0.524

Query string: Item: COc1cc(-c2cc(C3CC4CCC3N4)cnc2F)ccn1 (stereo not shown)
Result string: 7.9

Query string: What would you report for Fc1cc(-c2cc(C3CC4CCC3N4)cnc2F)ccn1 (stereo not shown) ?
Result string: 7.3

Query string: What would you report for Nc1ccc(-c2cc(C3CC4CCC3N4)cnc2F)cn1 (stereo not shown) ?
Result string: 1.47

Query string: Then Nc1cc(-c2cc(C3CC4CCC3N4)cnc2F)ccn1 (stereo not shown) ?
Result string: 0.719

Query string: Please give the result for Fc1ncc(C2CC3CCC2N3)cc1-c1ccc(Cl)nc1 (stereo not shown) too.
Result string: 6.6

* * *

- Test system: mice
- assayComment: animal or person
- Format: in vivo, mouse
- conditionParameters: Mus musculus, sc, 0.5 h, read-out: ED50 Hypothermia
- Method: Rectal temperature was measured by a thermistor probe (inserted 24 mm) and digital thermometer (Yellow Springs Instrument Co., Yellow Springs, Ohio). […] The difference in rectal temperature before and after treatment was calculated for each mouse. The ambient temperature of the laboratory varied from 21-24° C. from day to day.
The reader will find reported ED50 values listed item by item below.
Only the number, expressed in mg/kg, is required.

INSERT INTO results (compound, experimentaltarget, recordedmetric, observedmeasurement) VALUES
  ('c1ncc(-c2cncc(C3CC4CCC3N4)c2)cn1 (stereo not shown)', 'mice', 'ED50', 0.6),
  ('Clc1ncc(C2CC3CCC2N3)cc1-c1cncnc1 (stereo not shown)', 'mice', 'ED50', 0.03),
  ('CN1CCCC1c1cccnc1 (stereo not shown) [Nicotine, reference compound]', 'mice', 'ED50', 1);

Pending compound:
Query string: Quick one: ED50 of Fc1ncc(C2CC3CCC2N3)cc1-c1cncnc1 (stereo not shown) ?
Result string: 0.25

* * *

- experimentalTarget: heteromeric nAChRs containing alpha and beta subunits (αβ; alpha4 beta2 predominant) (Rattus norvegicus, UniProt P09483+P12390)
- conditionParameters: read-out: αβ [3H]Epibatidine (Ki)
pKi: −log10 of the molar value.
Label False if pKi falls below 10; label True in every other case.

Here's what some known entries look like.
INSERT INTO results (compound, classname) VALUES
  ('Fc1ncc(C2CC3CCC2N3)cc1-c1cccnc1 (stereo not shown)', 'False'),
  ('Fc1ccc(-c2cc(C3CC4CCC3N4)cnc2F)cn1 (stereo not shown)', 'True'),
  ('COc1cc(-c2cc(C3CC4CCC3N4)cnc2F)ccn1 (stereo not shown)', 'True');

Query string: Check the entry Fc1ncc(C2CC3CCC2N3)cc1-c1ccnc(Cl)c1 (stereo not shown) : does pKi equal or exceed 10?
Result string: False

Query string: Can you check Nc1ccc(-c2cc(C3CC4CCC3N4)cnc2F)cn1 (stereo not shown) next?
Result string: False
